meta.source: ChEMBL document CHEMBL1201862

system: SK-MEL-28; assay: NCI tumour cell line growth inhibition, 48 h
Calls of active or inactive are those of the source. Rule as the data show it: active = GI50 up to about 1.1 µM and inactive = higher.
GI50 by entry:

line.notation: O=[N+]([O-])c1ccc(-n2nc3ccc4nonc4c3n2)cc1
GI50: 46.2 µM (inactive)
//
line.notation: CCCn1c(CN(Cc2nc3ccccc3n2CCC)Cc2nc3ccccc3n2CCC)nc2ccccc21
GI50: 10.7 µM (inactive)
//
line.notation: Cc1ccc(NC(=O)CC/C(CC(=O)c2ccc(F)cc2)=N\NC(=O)C(=O)NN)cc1C
GI50: > 100 µM (inactive)
